Assignment: determine reported GI50 for the given compounds.
test system: NCI-H226 lung; experiment: NCI tumour cell line growth inhibition, 48 h

Example entries begin here.
>>> observed_measurement("CCN(CC)CCCN1C(=O)c2c(c(C)c3c(oc4ccc(O)cc43)c2C)C1=O")
"1.93 µM"
>>> observed_measurement("CCC(/C=C(C)/C=C/C(=O)c1c(O)c(-c2ccc(O)cc2)c[nH]c1=O)CO (stereo not given)")
"18 µM"

Dear colleague, could you send me GI50 for each of the items below? Thanks.
1. O=C(C(Br)C(Br)c1ccccc1)C(Br)C(Br)c1ccccc1 (stereo not given)
2. CCCCSSC(=S)N(CC)CC
3. O=c1ccc(N=Nc2ccccc2)ccc1Cl

A:
1: 1.74 µM; 2: > 100 µM; 3: 19.6 µM

====

test system: SNB-75 CNS; experiment: NCI tumour cell line growth inhibition, 48 h
result.type: TGI (µM)
Numbers only, in µM.

>>> observed_measurement("CC(C)(C)CC(C)(C)c1ccc(OCCSC(=N)N)cc1")
2.79

# batch size: 3; output TGI per entry
1. CSc1nn2c(-c3ccc4ccccc4c3)ccnc2c1C#N
2. Cc1nnc([S-])o1.[Au+].c1ccc([PH+](c2ccccc2)c2ccccc2)cc1
3. CCC(CC)COC(=O)[C@H](C)N[P@](=O)(OC[C@H]1O[C@@](C#N)(c2ccc3c(N)ncnn23)[C@H](O)[C@@H]1O)Oc1ccccc1

A:
1. 1.51
2. 2.6
3. 91.6

====

test system: EKVX NSCLC; experiment: NCI tumour cell line growth inhibition, 48 h
result.type: TGI

>>> observed_measurement("C=C1C(=O)O[C@H]2[C@H]1CC/C(COC(=O)NCc1ccc(Cn3c(=O)sn(CCI)c3=O)cc1)=C\\CC[C@@]1(C)O[C@@H]21")
"5.58 µM"

Give TGI for all compounds that follow.
1. Cn1c2ccccc2c(=NNc2ccc(S(N)(=O)=O)cc2)c2ccccc21
2. CC1=C(C(=O)Nc2ccc(Cl)c(Cl)c2)C(c2ccccc2Cl)NC(=S)N1 (stereo not drawn)
3. CCCCCCCCCCCCC/C=C/[C@H]1[C@@H](C(=O)OC)N1S(=O)c1ccc(C)cc1 (stereo partly drawn)
4. O=NNc1ccc(S(=O)c2ccccc2)cn1 (stereo not drawn)
5. COc1ccc(-c2cc3c(OC)c(OC)c(OC)cc3oc2=O)cc1

A:
> 50 µM
19 µM
> 100 µM
> 100 µM
> 100 µM

Could you tell me TGI for each of these compounds? They are listed below.
1. CC(SC(=S)Nc1cccc(F)c1)C(=O)O (stereo not drawn)
2. Clc1cccc(Cl)c1C(Nc1nncs1)Nc1nncs1

A:
1. > 100 µM
2. > 100 µM

====

tested on: HOP-92 NSCLC; test: NCI tumour cell line growth inhibition, 48 h
Would you mind telling me the reported GI50 of each entry?

Consider the worked cases shown below.
>>> observed_measurement("NS(=O)(=O)c1ccc(Nc2ncc(-c3ccccc3)o2)cc1")
"> 25 µM"
>>> observed_measurement("COc1ccc(/C=N/Nc2nc(N)nc(N3CCCC3)c2C#N)cc1")
"17.8 µM"
>>> observed_measurement("Cc1cc(I)cc(CN(C)CCN(C)C)c1O")
"17.1 µM"
>>> observed_measurement("O=NNc1ccc(S(=O)c2ccccc2)cn1 (stereo unspecified)")
"12.2 µM"

Go through the list and state GI50 for each entry.
1. N#Cc1c(-c2ccccc2)n([O-])c2ccccc2[n+]1=O
2. CCCCC/C=C/C(=O)CCc1ccc(O)c(OC)c1

A:
1. 21.8 µM
2. 3.42 µM
